Each entry below lists one item and its recorded CLint value.
- method summary: Intrinsic clearance in mouse liver microsomes
- Assay type: ADME, microsome
# number only, unit mL/min/g dropped from output

[
  {
    "mol smiles": "CCn1c2ccc(Cl)cc2c2cc(C(=O)NCc3ccc(S(=O)(=O)CC)cc3)ccc21",
    "measure name": "CLint",
    "reported": 0.197
  },
  {
    "mol smiles": "CCn1c2ccccc2c2cc(C(=O)NCc3ccc(S(=O)(=O)CC)cc3)ccc21",
    "measure name": "CLint",
    "reported": 0.305
  },
  {
    "mol smiles": "CCn1c2ccc(F)cc2c2cc(C(=O)NCc3ccc(S(=O)(=O)CC)cc3)ccc21",
    "measure name": "CLint",
    "reported": 0.348
  }
]

Consider now this further molecule.
CLint measured on CCn1c2ccc(C)cc2c2cc(C(=O)NCc3ccc(S(=O)(=O)CC)cc3)ccc21 = 0.368
